TARGET_SYSTEM: Retinoic acid receptor RXR-alpha (Homo sapiens)
TEST_SUMMARY: qHTS assay for small molecule agonists of retinoid X receptor alpha signaling (AID 588544)
CONDITION_DETAILS: HEK293T RXRa-UAS-bla, beta-lactamase reporter, 18 h; series mostly up to 76.7 µM
Results filed as inconclusive are left out. Calls of active or inactive are those of the source. Calls come from the whole dose curve.
Your answer must be one of the following: TRUE for active, FALSE for inactive

Task item: Could you please tell me the result logged for "CCOCCOCCOCC" in this assay?
Reply: FALSE

Task item: Could you please tell me the result logged for "CC(C)C(=O)OC(=O)C(C)C" in this assay?
Reply: FALSE

Task item: Could you please tell me the result logged for "CCCCOC(=O)/C=C\C(=O)OCCCC" in this assay?
Reply: FALSE

Task item: Could you please tell me the result logged for "CC(C)CCCCCCc1ccc(OCCOCCO)cc1" in this assay?
Reply: TRUE

Task item: Could you please tell me the result logged for "CCCC/C=C\CCCCCCCCO" in this assay?
Reply: FALSE

Task item: Could you please tell me the result logged for "CO[Si](OC)(OC)c1ccccc1" in this assay?
Reply: FALSE

Task item: Could you please tell me the result logged for "Nc1ccc(N)c2c1C(=O)c1c(N)ccc(N)c1C2=O" in this assay?
Reply: FALSE

Task item: Could you please tell me the result logged for "Cc1ccc(N)c(S(=O)(=O)O)c1" in this assay?
Reply: FALSE

Task item: Could you please tell me the result logged for "CCCCN(CCCC)CCCC" in this assay?
Reply: FALSE

Task item: Could you please tell me the result logged for "c1ccc2c(c1)Cc1ccccc1-2" in this assay?
Reply: FALSE

----------
Provide the reported activation of each item.
TEST_SUMMARY: qHTS assay for environmental chemicals that activate the Aryl hydrocarbon Receptor (AhR) signaling pathway (AID 651777); note: % of control where 0% means no effect; nearly all actives have a fitted effect of over 15% in size
CONDITION_DETAILS: 1A2-DRE human hepatoma cells, luciferase, 24 h; hits give high values
Inconclusive results are not listed.
One number for each entry, in %.

MOLECULE	READOUT_LABEL	DISPLAY_UNIT	READOUT_NUMBER
CC(C)(C)c1cc(C(C)(C)C)c(O)c(C(C)(C)C)c1	activation	%	-0.208
NCCCCCCCCCCCC(=O)O	activation	%	-1.28
CC(C)OC(=O)c1ccccc1C(=O)OC(C)C	activation	%	1.05

For each of the molecules below, note its activation.
1. CCOC(=O)COc1cc(-n2ncc(C(F)(F)F)c(C)c2=O)c(F)cc1Cl
2. O=S(=O)(O)c1ccc(N=Nc2cc(S(=O)(=O)O)c3ccccc3c2O)c2ccccc12
3. CC(C)CCCCCCCCCCCCCCC(=O)O
4. CCC(=O)C1C(=O)CC(C(=O)O)CC1=O (configuration not stated)
5. CCCCCCCCCCCCCO
6. C=C(C)C(=O)OCCN(C)C
7. CCCOC(=O)c1ccc(C(=O)OCCC)nc1
8. O=S(c1ccc(Cl)cc1)c1cc(Cl)c(Cl)cc1Cl (configuration not stated)

Reply:
1. -2.83
2. 3.98
3. -2.9
4. -0.512
5. 0.322
6. 0.477
7. -2.64
8. 0.902

For each of the molecules below, note its activation.
1. CC1(C)C(=O)N(Cl)C(=O)N1Cl
2. c1cc2ccc3ccc4ccc5cccc6c(c1)c2c3c4c56
3. CCCOC(=O)NCCCN(C)C
4. C=CCCCCCCCCCC
5. COCCOCCOCCO
6. C=Cc1ccccc1Br

Reply:
[0.743, 6.27, 2.96, -1.31, -0.0316, 1.62]
